ASSAY TARGET: T1, biotinylated CD3 epsilon epitope peptide (UniProt P07766 22-48, biotinylated)
T1 chain: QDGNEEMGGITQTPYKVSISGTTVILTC
PROTOCOL TEXT: SPR (Biacore); biotinylated CD3 epsilon epitope peptide on chip via streptavidin, antibody as analyte
ATTRIBUTE MEASURED: Kd (nM)
Report as a plain number; the unit nM is understood.

Study these solved cases before continuing.
BINDER	Kd [nM]
NNS6f68 (CE115HA340 with VEWGRW inserted between Kabat positions 99 and 100), one-arm antibody (antibody, V domains shown) VH: QVQLVESGGGLVQPGRSLRLSCAASGFTFSNAWMHWVRQAPGKGLEWVAQIKDKSNNYATYYAESVKGRFTISRDDSKNSIYLQMNSLKTEDTAVYYCRYVHYAAVEWGRWYYGVDAWGQGTTVTVSS VL: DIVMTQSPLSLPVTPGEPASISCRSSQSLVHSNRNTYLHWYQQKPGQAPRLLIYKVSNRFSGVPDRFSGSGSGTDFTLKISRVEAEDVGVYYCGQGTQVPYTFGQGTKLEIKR	45
NNS6f71 (CE115HA340 with GWVLGS inserted between Kabat positions 99 and 100), one-arm antibody (antibody, V domains shown) VH: QVQLVESGGGLVQPGRSLRLSCAASGFTFSNAWMHWVRQAPGKGLEWVAQIKDKSNNYATYYAESVKGRFTISRDDSKNSIYLQMNSLKTEDTAVYYCRYVHYAAGWVLGSYYGVDAWGQGTTVTVSS VL: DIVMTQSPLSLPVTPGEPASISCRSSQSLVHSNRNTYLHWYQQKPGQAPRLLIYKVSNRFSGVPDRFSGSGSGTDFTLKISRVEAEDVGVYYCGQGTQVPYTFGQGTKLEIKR	51

Lab note: measured Kd of NNS6f64 (CE115HA340 with LVSLTV inserted between Kabat positions 99 and 100), one-arm antibody (antibody, V domains shown) VH: QVQLVESGGGLVQPGRSLRLSCAASGFTFSNAWMHWVRQAPGKGLEWVAQIKDKSNNYATYYAESVKGRFTISRDDSKNSIYLQMNSLKTEDTAVYYCRYVHYAALVSLTVYYGVDAWGQGTTVTVSS VL: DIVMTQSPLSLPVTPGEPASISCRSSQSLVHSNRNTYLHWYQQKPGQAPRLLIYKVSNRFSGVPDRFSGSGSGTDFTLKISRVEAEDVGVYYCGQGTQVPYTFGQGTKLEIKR was 78

Data origin, for the record: patent US20240270846A1
